assayed.target: IL-17A(FLAG-tagged): IL-17RA(His-tagged) (Homo sapiens, UniProt Q16552, K93Q)
Sequence (Q16552 with tags, fused parts or gaps K93Q): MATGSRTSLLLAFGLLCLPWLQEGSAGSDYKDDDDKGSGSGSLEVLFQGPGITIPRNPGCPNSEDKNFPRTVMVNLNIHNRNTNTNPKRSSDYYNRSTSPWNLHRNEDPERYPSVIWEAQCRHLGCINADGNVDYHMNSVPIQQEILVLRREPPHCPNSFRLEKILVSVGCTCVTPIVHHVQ
run.description: IL-17A(FLAG-tagged): IL-17RA(His-tagged) binding disruption Eu-HTRF assay
assay.setup: class of the average IC50 where tested more than once
pIC50: −log10 of the molar value.
property: pIC50

Consider the following illustrative entries.
- CC1(C(=O)c2cnn3cc([C@@H](NC(=O)c4nonc4C4CC4)C4CCC(F)(F)CC4)nc3c2)C[C@@H](C(F)(F)F)NC1=O (mixture of isomers) [Example 102]: > 6.40
- O=C(N[C@H](c1cn2ncc(C[C@@H]3C[C@H](C(F)(F)F)NC3=O)cc2n1)C1CCC(F)(F)CC1)c1nonc1C1CC1 (relative stereo) [Example 68]: 5.40 to 6.40
- O=C(N[C@H](c1cn2ncc(CC3C[C@@H](C4CC4)NC3=O)cc2n1)C1CCC(F)(F)CC1)c1nonc1C1CC1 (single isomer, unassigned) [Example 42]: > 6.40
- O=C(N[C@H](c1cn2ncc(C[C@@]34CC[C@H](C3)NC4=O)cc2n1)C1CCC(F)(F)CC1)c1nonc1C1CC1 (single isomer, unassigned) [Example 17]: 5.40 to 6.40
- O=C(N[C@H](c1cn2ncc([C@H](O)[C@@H]3C[C@H](C(F)(F)F)NC3=O)cc2n1)C1CCC(F)(F)CC1)c1nonc1C1CC1 (relative stereo) [Example 64]: 5.40 to 6.40

Reported pIC50 for C[C@H](c1cnn2cc([C@@H](NC(=O)c3nonc3C3CC3)C3CCC(F)(F)CC3)nc2c1)[C@H]1C[C@@H](C(F)(F)F)NC1=O (relative stereo) [Example 79] was > 6.40

Consider O=C(N[C@H](c1cn2ncc(CC3CCCNC3=O)cc2n1)C1CCC(F)(F)CC1)c1nonc1C1CC1 (single isomer, unassigned) [Example 23] . Its measured pIC50 is 5.40 to 6.40

// CC1(C)CNC(=O)C1Cc1cnn2cc([C@@H](NC(=O)c3nonc3C3CC3)C3CCC(F)(F)CC3)nc2c1 (single isomer, unassigned) [Example 15] : pIC50 value = < 5.40

Record O=C(N[C@H](c1cn2ncc(CC3CC(F)(F)CNC3=O)cc2n1)C1CCC(F)(F)CC1)c1nonc1C1CC1 (single isomer, unassigned) [Example 1] . Reported pIC50: > 6.40

Looking up CC(C)n1nccc1C(=O)N[C@H](c1cn2ncc(C[C@@H]3C[C@@H](C(F)(F)F)NC3=O)cc2n1)C1CCC(F)(F)CC1 [Example 52] , I see its pIC50 listed as 5.40 to 6.40

The reported pIC50 of the molecule O=C(N[C@H](c1cn2ncc(C[C@@H]3C(=O)NC[C@H]3C(F)(F)F)cc2n1)C1CCC(F)(F)CC1)c1nonc1C1CC1 (relative stereo) [Example 100] was 5.40 to 6.40

The reported value for CC[C@H]1C[C@H](Cc2cnn3cc([C@@H](NC(=O)c4nonc4C4CC4)C4CCC(F)(F)CC4)nc3c2)C(=O)N1 (relative stereo) [Example 91] in terms of pIC50 is 5.40 to 6.40

Recorded result, O=C(N[C@H](c1cn2ncc(CC3CCCCNC3=O)cc2n1)C1CCC(F)(F)CC1)c1nonc1C1CC1 (single isomer, unassigned) [Example 25] , pIC50: 5.40 to 6.40
